Hi there, I'd appreciate the recorded EC50 for every entry that follows.
Experiment Description: inhibitors of intracellular T. cruzi replication, confirmation, NIH3T3 host cells, beta-gal luminescence (AID 2044);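 note: intracellular parasites grown in NIH/3T3 mouse fibroblasts as host cells; luminescent beta-galactosidase reporter signal from transgenic T. cruzi replicating inside host cells; inhibitors lower the luminescence signal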
Type: functional, cell-based
Active and inactive are the calls of the source.

Reference set (5 entries):
> print(dat)
                                   compound  measured.endpoint               val
1         Cc1ccc(SCCN=C(S)Nc2ccc(C)cc2C)cc1               EC50  2200 nM (active)
2                  CC(=S)/C=C1\Sc2ccccc2N1C               EC50   739 nM (active)
3  CCOC(=O)N1CCN(C(=O)c2oc3ccc(S(=O)(=O)N4CCCCCC4)cc3c2C)CC1               EC50  2020 nM (active)
4    C=CCOc1c(Cl)cc(CNc2ccc(C)c(Cl)c2)cc1OC               EC50  2750 nM (active)
5  COc1cc2c(cc1OC)CN(c1nc(CN3CCCC3)nc3sc(C)c(C)c13)CC2               EC50   278 nM (active)

Would you be so kind as to report EC50 for each listed record?
1. COc1cc(NC(=O)c2ccc([N+](=O)[O-])o2)ccc1NC(=O)c1cccs1
2. O=C(Nc1ccc(Cl)c([N+](=O)[O-])c1)c1ccc(NCCCN2CCOCC2)c([N+](=O)[O-])c1
3. COc1cccc(-c2nc(CCl)cs2)c1
4. CCOC(=O)c1cnc(SC)nc1Oc1cccc(NS(=O)(=O)c2ccccc2)c1
5. COc1ccc(S(=O)(=O)NCC(c2cccnc2)N2CCN(Cc3ccccc3)CC2)cc1 (stereo not given)

1: 548 nM (active); 2: 963 nM (active); 3: 3250 nM (active); 4: 1640 nM (active); 5: 1580 nM (active)

---

Tested On: Replicative DNA helicase DnaB (Mycobacterium tuberculosis)
Sequence (P9WMR3 whole entry): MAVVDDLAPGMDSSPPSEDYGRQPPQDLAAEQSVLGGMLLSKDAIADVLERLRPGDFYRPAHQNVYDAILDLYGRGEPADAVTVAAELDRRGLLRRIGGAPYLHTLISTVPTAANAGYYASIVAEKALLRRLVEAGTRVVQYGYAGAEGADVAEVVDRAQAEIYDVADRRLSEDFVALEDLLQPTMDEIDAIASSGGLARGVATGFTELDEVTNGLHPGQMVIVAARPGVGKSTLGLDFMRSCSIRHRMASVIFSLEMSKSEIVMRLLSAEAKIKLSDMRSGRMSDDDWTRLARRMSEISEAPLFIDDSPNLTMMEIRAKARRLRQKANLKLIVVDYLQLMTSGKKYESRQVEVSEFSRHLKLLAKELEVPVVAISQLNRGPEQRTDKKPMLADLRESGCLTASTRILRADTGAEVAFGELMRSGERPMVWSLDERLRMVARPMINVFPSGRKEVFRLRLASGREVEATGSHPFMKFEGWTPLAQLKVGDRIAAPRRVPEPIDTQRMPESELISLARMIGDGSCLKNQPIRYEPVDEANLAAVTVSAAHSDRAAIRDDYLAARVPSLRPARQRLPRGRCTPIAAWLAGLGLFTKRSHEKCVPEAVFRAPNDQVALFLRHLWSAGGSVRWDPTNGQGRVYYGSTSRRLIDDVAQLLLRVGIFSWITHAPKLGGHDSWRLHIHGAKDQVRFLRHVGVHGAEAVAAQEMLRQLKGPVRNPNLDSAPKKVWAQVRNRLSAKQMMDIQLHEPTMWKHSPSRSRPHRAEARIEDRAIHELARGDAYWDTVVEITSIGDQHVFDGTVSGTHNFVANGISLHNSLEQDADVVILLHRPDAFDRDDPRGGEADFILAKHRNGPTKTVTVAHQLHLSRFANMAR
Experiment Description: DnaB intein splicing inhibitors, dose response, biochemical, cell-free fluorescence (AID 449749)
Format: functional
Active and inactive are the calls of the source.
Permitted responses: active, inactive

Known results for molecules:
> print(dat)
                                   molecule  category
1  O=C(c1c[nH]c(C(=O)C(Cl)(Cl)Cl)c1)c1ccc(F)cc1F    active
2  COC(=O)c1sc(-c2ccc(Cl)cc2)cc1NC(=O)/C=C/C(=O)O    active
3  COc1ccc(OC)c(NC(=O)Cc2ccc(NC3=NC4CS(=O)(=O)CC4S3)cc2)c1 (stereo not given)  inactive
4  O=S(=O)(/C(=C/c1ccc(C(F)(F)F)cc1)c1nc2ccccc2[nH]1)c1ccccc1    active
5  C#CCOc1ccc(/C=C2/C(=O)N(c3cccc(C(=O)O)c3)N=C2C)cc1OC    active
6  COc1cc(C2C(C#N)=C(N)Oc3[nH]nc(-c4cccnc4)c32)ccc1OCC(N)=O (stereo not given)    active
7  COc1cccc(N(C(=O)CCl)C(C(=O)NCCc2ccccc2)c2cccs2)c1 (stereo not given)    active
8  COC(=O)COc1c(Cl)cc(C(c2c(C)n[nH]c2O)c2c(C)n[nH]c2O)cc1OC    active
9                Cc1nnc(N/N=C/c2ccccc2O)n1N    active

Could you now consider this next molecule?
Please state the recorded outcome for this molecule: Cc1[nH]nc(O)c1C(c1ccc(Cl)cc1)c1c(O)n[nH]c1C
active

---

Tested On: DNA repair and recombination protein RAD54-like (Homo sapiens, UniProt Q92698)
Sequence (Q92698 whole entry): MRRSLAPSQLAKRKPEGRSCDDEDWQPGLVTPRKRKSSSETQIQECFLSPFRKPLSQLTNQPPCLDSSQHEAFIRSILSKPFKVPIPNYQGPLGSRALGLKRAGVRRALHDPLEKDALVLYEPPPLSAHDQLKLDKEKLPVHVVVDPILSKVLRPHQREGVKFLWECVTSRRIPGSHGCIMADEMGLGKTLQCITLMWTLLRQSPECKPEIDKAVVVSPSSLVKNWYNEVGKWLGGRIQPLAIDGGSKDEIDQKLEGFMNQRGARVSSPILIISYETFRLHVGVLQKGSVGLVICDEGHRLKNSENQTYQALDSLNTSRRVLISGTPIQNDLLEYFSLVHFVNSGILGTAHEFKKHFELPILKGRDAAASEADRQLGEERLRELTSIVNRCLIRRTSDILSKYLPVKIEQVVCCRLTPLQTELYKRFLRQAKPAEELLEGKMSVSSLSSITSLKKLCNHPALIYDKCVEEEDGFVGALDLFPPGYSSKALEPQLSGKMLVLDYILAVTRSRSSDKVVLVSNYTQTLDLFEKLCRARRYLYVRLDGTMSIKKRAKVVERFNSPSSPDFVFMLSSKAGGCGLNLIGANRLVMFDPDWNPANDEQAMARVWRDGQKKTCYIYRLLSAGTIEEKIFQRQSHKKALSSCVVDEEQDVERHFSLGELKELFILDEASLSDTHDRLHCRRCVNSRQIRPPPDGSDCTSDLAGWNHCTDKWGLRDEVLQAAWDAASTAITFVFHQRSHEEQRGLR
Experiment Description: inhibitors of human RAD54 branch migration, confirmation, biochemical, fluorescence, cherry-picked samples, dose series (AID 651657)
Type: functional
Active and inactive are the calls of the source.
Hi there, I'd appreciate the recorded AC50 for every entry that follows.

> print(dat)
                              sample.smiles               val
1  COc1ccc(OC)c(Nc2nc(NCCCN(C)C)nc(N)c2[N+](=O)[O-])c1  20.2 µM (active)
2   CCOC(=O)c1cnc2c(ccc3ccccc32)c1NCCCN(C)C  3.38 µM (active)
3  CCN1CCN(c2cc(C)c3cc(NC(S)=NCCCN4CCc5ccccc5C4)ccc3n2)CC1  20.6 µM (active)

Please look at the following compound next.
# lookup: AC50 of CCOC(=O)Nc1c2ccccc2nc2ccccc12
54.8 µM (active)

---

Hi there, I'd appreciate the recorded EC50 for every entry that follows.
Experiment Description: Luminescence Cell-Based Dose Confirmation HTS to Identify Activators of 5'UTR Stem-Loop Driven Alpha-Synuclein mRNA Translation in H4 Neuroglioblastoma Cells. [Related pubchem assays: 1829 (Project Summary), 1814 (Primary HTS)]
Type: functional
The source made the active and inactive calls.

> print(dat)
                                   compound                val
1  O=C(Nc1nnc(-c2ccccc2F)s1)C1CCCO1 (centres undefined)  0.223 µM (active)

Would you be so kind as to report EC50 for each listed record?
1. Cc1nn(-c2ccccc2)c2c1C(O)n1c(nc3ccccc31)S2 (centres undefined)
2. CC(=O)n1c2c(c3ccccc31)OC(N)=C(C#N)C2c1ccc(C(C)C)cc1 (centres undefined)
3. COc1cc2c(cc1OC)CN(c1ccc3ccccc3n1)CC2

1: > 120 µM (not active); 2: 11.7 µM (active); 3: 17 µM (active)

Would you be so kind as to report EC50 for each listed record?
1. O=c1c2cc(-c3ccccc3)sc2ncn1-n1cccc1
2. CCc1ccc2nc(O)c(CN(Cc3ccccc3OC)C(=O)Nc3ccccc3OC)cc2c1
3. O=C(c1ccc(C[S+]([O-])Cc2ccccc2Cl)o1)N1CCN(C2CCCCC2)CC1 (centres undefined)
4. COc1ccc(C(=O)NC2=Nc3ccccc3N=C(C)C2c2ccccc2)cc1 (centres undefined)

1. 0.473 µM (active)
2. 111 µM (active)
3. > 120 µM (not active)
4. 9.66 µM (active)

# lookup: EC50 of Cc1cccc(-n2ccnc2SCC(=O)Nc2nccs2)c1
6.34 µM (active)

---

Tested On: Methionyl-tRNA synthetase, putative (Trypanosoma brucei brucei, UniProt Q38C91)
Sequence (Q38C91 whole entry): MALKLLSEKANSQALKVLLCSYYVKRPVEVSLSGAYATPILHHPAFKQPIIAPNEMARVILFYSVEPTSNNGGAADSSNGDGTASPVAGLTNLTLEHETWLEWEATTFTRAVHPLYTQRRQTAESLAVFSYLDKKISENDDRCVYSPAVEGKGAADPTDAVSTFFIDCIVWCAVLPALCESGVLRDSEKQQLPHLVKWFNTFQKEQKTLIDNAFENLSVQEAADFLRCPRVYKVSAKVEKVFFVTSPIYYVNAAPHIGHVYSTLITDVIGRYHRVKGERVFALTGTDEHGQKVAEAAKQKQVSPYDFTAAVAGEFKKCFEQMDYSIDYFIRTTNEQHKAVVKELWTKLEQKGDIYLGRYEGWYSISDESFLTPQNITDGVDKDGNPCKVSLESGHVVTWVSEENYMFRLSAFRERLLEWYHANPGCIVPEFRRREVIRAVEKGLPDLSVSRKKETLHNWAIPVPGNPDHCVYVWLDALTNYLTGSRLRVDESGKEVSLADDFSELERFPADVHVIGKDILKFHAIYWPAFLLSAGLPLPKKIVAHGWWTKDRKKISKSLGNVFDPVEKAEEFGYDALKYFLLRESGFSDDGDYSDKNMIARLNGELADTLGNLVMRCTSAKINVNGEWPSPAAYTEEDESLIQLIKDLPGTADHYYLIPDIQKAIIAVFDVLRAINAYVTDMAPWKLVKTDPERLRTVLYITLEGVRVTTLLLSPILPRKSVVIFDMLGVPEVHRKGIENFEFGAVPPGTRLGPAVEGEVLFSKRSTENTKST
Format: functional, Trypanosoma brucei brucei strain 927/4 GUTat10.1
Activity calls are given as the source filed them.
Permitted responses: active, inactive

Known results for compounds:
> print(dat)
                                   compound                                 tested.on  category
1   O=c1c(Cc2ccc(Cl)cc2Cl)c(O)ccn1Cc1ccncc1  Methionyl-tRNA synthetase, putative (Trypanosoma brucei brucei, UniProt Q38C91)  inactive
2  O=C(Nc1ccc(C(=O)O)cc1)/C(=C\C=C\c1ccccc1)NC(=O)c1cccc(Br)c1  Methionyl-tRNA synthetase, putative (Trypanosoma brucei brucei, UniProt Q38C91)  inactive
3  O=C(NNC(=O)c1cc(-c2ccc(Cl)c(Cl)c2)nc2ccccc12)Nc1ccccc1  Methionyl-tRNA synthetase, putative (Trypanosoma brucei brucei, UniProt Q38C91)    active

Could you now consider this next compound?
Please state the recorded outcome for this compound: CC(CNC(=S)Nc1cc(F)cc(F)c1)CSc1ccc(Cl)cc1 (centres undefined)
inactive
